Target: P. falciparum apicoplast DNA polymerase (Pf-apPOL) (Plasmodium falciparum, UniProt Q8ILY1)
Sequence (Q8ILY1 entry or part of it): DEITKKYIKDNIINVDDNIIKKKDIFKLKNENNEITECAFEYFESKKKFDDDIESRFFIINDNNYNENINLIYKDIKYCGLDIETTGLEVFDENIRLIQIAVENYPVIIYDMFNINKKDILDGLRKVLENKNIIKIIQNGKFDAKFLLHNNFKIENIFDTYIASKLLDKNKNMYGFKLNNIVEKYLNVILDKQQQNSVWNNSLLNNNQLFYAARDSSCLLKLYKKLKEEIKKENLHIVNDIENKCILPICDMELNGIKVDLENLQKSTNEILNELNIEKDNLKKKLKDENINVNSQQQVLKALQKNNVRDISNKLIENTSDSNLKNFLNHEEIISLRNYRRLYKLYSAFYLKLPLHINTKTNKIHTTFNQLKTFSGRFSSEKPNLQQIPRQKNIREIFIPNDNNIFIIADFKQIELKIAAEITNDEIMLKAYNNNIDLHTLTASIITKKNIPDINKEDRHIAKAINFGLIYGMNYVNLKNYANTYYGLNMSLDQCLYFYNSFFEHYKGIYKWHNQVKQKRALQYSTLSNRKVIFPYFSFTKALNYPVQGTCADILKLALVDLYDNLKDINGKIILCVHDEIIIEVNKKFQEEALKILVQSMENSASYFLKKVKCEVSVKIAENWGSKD
Assay: Fluorescence-based high-throughput DNA polymerase assay (molecular beacon), primary screen and dose-response;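 further: test concentration in µM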
Assay type: biochemical
Settings: DRC-2, 180', concentration 40
reportedMetric: % inhibition apPOL 180' (%)

[
  {
    "compound": "CCSc1nnc(NC(=O)Cc2csc(NC(=O)c3cnccn3)n2)s1",
    "readoutUnits": "%",
    "observedValue": 59
  },
  {
    "compound": "COc1ccc2c(c1)CCc1c-2nc2ccc(Br)cc2c1C(=O)O",
    "readoutUnits": "%",
    "observedValue": 42
  },
  {
    "compound": "CCOC(=O)C(NCc1ccco1)(NC(=O)c1ccco1)C(F)(F)F (centres unmarked)",
    "readoutUnits": "%",
    "observedValue": 21
  },
  {
    "compound": "O=C(O)CC1SC(c2ccc3c(c2)OCO3)=NC1=O (centres unmarked)",
    "readoutUnits": "%",
    "observedValue": 23
  },
  {
    "compound": "CO/N=C(\\C(=O)N[C@@H]1C(=O)N2C(C(=O)[O-])=C(CSc3nc(=O)c([O-])nn3C)CSC12)c1csc(N)n1.[Na+].[Na+] (some centres unmarked)",
    "readoutUnits": "%",
    "observedValue": 21
  },
  {
    "compound": "COc1ccccc1CCC(=O)N1CCc2c(nc3cc(-c4ccccc4)[nH]n3c2=O)C1",
    "readoutUnits": "%",
    "observedValue": 55
  },
  {
    "compound": "CSCCC(C)(O)CNC(=O)C1CC1 (centres unmarked)",
    "readoutUnits": "%",
    "observedValue": 32
  },
  {
    "compound": "O=C(Nc1nnc(-c2ccno2)o1)c1ccc2c(c1)OCO2",
    "readoutUnits": "%",
    "observedValue": 25
  },
  {
    "compound": "O=c1cc(-c2ccccc2)oc2c(O)c(O)ccc12",
    "readoutUnits": "%",
    "observedValue": 16
  },
  {
    "compound": "COc1cc(/C=C2\\S/C(=N/C(C)=O)NC2=O)cc(Br)c1OCC(=O)O",
    "readoutUnits": "%",
    "observedValue": 28
  },
  {
    "compound": "O=C(c1c[nH]c2ncccc12)N1CCCCCC1 [Molecule 51, O=C(c1c[nH]c2c1cccn2)N1CCCCCC1]",
    "readoutUnits": "%",
    "observedValue": 35
  },
  {
    "compound": "CS(=O)(=O)c1cccc(C(=O)Nc2nnc(-c3ccno3)o2)c1",
    "readoutUnits": "%",
    "observedValue": 7.43
  },
  {
    "compound": "CC1=NNC(=O)C1Oc1ccc(Cl)cc1Cl (centres unmarked)",
    "readoutUnits": "%",
    "observedValue": 26
  },
  {
    "compound": "O=C(O)c1c(F)c(F)c(-c2c(F)c(F)c(C(=O)O)c(F)c2F)c(F)c1F",
    "readoutUnits": "%",
    "observedValue": 14
  },
  {
    "compound": "O=C(O)CC1=NN(c2cccc([N+](=O)[O-])c2)C(=O)C1",
    "readoutUnits": "%",
    "observedValue": 41
  },
  {
    "compound": "CN1CC(=Cc2ccco2)C(=O)C(=Cc2ccco2)C1",
    "readoutUnits": "%",
    "observedValue": 42
  },
  {
    "compound": "CN(C)C=C1SCc2ccccc2C1=O",
    "readoutUnits": "%",
    "observedValue": 14
  }
]
